EC50 values by entry
assay: Inhibition of HIV-1 reverse transcriptase Y188L mutant assessed as reduction in luciferase reporter activity by single-round assay

{"compound smiles": "Cc1cc(/C=C/C#N)cc(C)c1-n1cnc2cnc(Nc3ccc(C#N)cc3)nc21", "value units": "nM", "EC50": 9.6}
{"compound smiles": "Cc1cc(/C=C/C#N)cc(C)c1Nc1ncc2ncn(-c3ccc(C#N)cc3)c2n1", "value units": "nM", "EC50": 91}

* * *

assay: Inhibition of HIV-1 reverse transcriptase E138K mutant assessed as reduction in luciferase reporter activity by single-round assay
EC50 values by entry
reported metric: EC50 (nM)

{"compound smiles": "Cc1cc(/C=C/C#N)cc(C)c1-n1cnc2cnc(Nc3ccc(C#N)cc3)nc21", "observed result": 0.7}
{"compound smiles": "Cc1cc(/C=C/C#N)cc(C)c1Nc1ncc2ncn(-c3ccc(C#N)cc3)c2n1", "observed result": 25}
